Hey, just so you know, these numbers are from the supplement of paper PMC10567573.

B1: NCF4 (parent)
chain: FVKILKDFPEEDDPTNWLRCYYYE

Variants of: B1
Experiment: protein stability index of a GFP-peptide fusion (GPS, HEK-293T) (PSI 1-6); higher = more stable;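 also: lentivirally expressed fusions sorted by FACS into six bins by GFP to DsRed ratio, PSI derived from sequencing read proportions per bin multiplied by bin number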
Settings: c terminus: a fixed tail appended
Listing of entries alongside the reported protein stability index.

| mutant | protein stability index |
| --- | --- |
| V2G | 2.24 |
| W17L | 1.74 |
| E24G | 1.54 |
| P9I | 1.65 |
| E24P | 2.12 |
| V2M | 1.96 |
| T15E | 2.85 |
| P9E | 1.74 |
| L18E | 2.13 |
| T15D | 1.79 |
| N16T | 2.25 |
| V2I | 1.46 |
| R19P | 2.54 |
| Y22R | 2.46 |
| P9T | 1.73 |
| W17N | 3.07 |
| K6P | 1.56 |
| T15S | 2.14 |
| E24Y | 1.47 |
| D12Q | 2.75 |
| Y23K | 1.73 |
| D13T | 2.72 |
| E11F | 3.95 |
| C20L | 1.69 |
| E11H | 3.15 |
| Y22P | 1.41 |
| P14R | 3.25 |
| D13R | 1.66 |
| F8E | 1.14 |
| Y21G | 1.06 |
| K3R | 1.17 |
| F8M | 3.67 |
| D13C | 1.96 |
| D7V | 2.69 |
| Y22G | 2.64 |
| P9R | 1.6 |
| Y21S | 1.8 |
| F1N | 2.96 |
| N16K | 1.81 |
| F1Q | 2.56 |
| Y23S | 1.83 |
| D12K | 1.41 |
| D13H | 2.54 |
| K6F | 2.93 |
| I4D | 1.25 |
| Y21I | 2.44 |
| E24S | 1.98 |
| C20W | 1.5 |
| T15M | 2.32 |
| L5T | 2.17 |
| D12S | 2.4 |
| E24Q | 2.5 |
| D7Q | 1.07 |
| P9W | 1.27 |
| P14V | 1.84 |
| N16F | 2.41 |
| V2N | 2.11 |
| F8V | 2.59 |
| E10V | 1.62 |
| D13G | 1.04 |
| W17Q | 1.89 |
| L18H | 1.66 |
| Y23V | 1.3 |
| Y23C | 1.49 |
| N16G | 1.61 |
| T15R | 3.22 |
| P14T | 1.11 |
| L5F | 1.86 |
| P9D | 1.85 |
| Y21N | 3.57 |
| R19M | 2.31 |
| Y23H | 1.51 |
| F8R | 1.69 |
| R19V | 1.74 |
| T15I | 1.44 |
| C20D | 1.79 |
| D13Y | 2.81 |
| F1W | 3.29 |
| W17S | 1.52 |
| L18N | 1.86 |
| V2C | 1.95 |
| T15V | 1.9 |
| F1A | 1.99 |
| D12H | 1.52 |
| N16C | 3.04 |
